Provide the reported binding signal of each item.
Target: TDP-43 (Homo sapiens, UniProt Q13148 1-414)
Sequence (Q13148 whole entry): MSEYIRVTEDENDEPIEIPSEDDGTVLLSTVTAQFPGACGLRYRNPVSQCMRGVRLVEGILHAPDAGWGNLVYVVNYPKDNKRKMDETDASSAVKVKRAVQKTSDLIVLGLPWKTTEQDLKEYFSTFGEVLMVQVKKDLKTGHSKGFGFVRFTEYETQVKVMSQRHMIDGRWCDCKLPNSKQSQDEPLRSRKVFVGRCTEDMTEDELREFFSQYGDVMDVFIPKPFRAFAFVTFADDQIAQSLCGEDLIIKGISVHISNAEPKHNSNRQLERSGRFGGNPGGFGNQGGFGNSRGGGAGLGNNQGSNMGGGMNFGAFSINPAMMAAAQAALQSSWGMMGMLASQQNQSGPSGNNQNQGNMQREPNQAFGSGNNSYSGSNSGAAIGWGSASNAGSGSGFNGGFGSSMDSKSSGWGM
Assay: RNA Bind-n-Seq with designed 260-mer pool; 25 mM Tris-HCl, 150 mM KCl, 3 mM MgCl2, BSA (printed 500 mg/mL), 20 units/mL SUPERase IN; pH not stated; 500 nM RNA pool, 1 h, 4 C; TDP-43 5, 50, 500 nM; high values mean tight binding
Settings: protein: recombinant; tags: SBP (GST cleaved off with PreScission; pGEX-GST-SBP)
The full ranking holds about 9,900 sequences; the median of “r (bound/input frequency ratio)” is about 0.7, and the highest 2% start at about 6.5. For the sample, the highest values were picked, then their nearest neighbours and some sequences at random.

**Query** Tell me measured binding signal for ENSMUSG00000031028.492|Tub|69:75;106:112 (ssRNA) RNA: GGGAGUUCUACAGUCCGACGAUCGCUUCGAUAUCCGCAUGCUAUUUAAAUGAACAUGGGGUGGUGAUGGUGCCUUAACAAUCUUGACACUAAGGUGAAGCAAGCAAGUAAGCACACACCCUCUGGGAAGACAGGAGUCGGAAGCCAAGCACACACGCAACAGUCUGGAAGAGAGCUUUUGGUAAUCAUACCGUCUUCAGUGACAAGGCAACAAUGCUGUAAAGUGGGUUUGUUUGGUUUUGUUUUUUCUUUCUCUUUUAUGGAAAUGGCAGGUCUAUUUGCCUCAAACGUUAUGUAGAAGUAGCUCUUGCGGUCGCACUAGUGUGGAAUUCUCGGGUGUCAAGG please.
**Result** 0.828 R (bound/input frequency ratio)

**Query** Tell me measured binding signal for ENSMUSG00000028439.215|Fam219a (ssRNA) RNA: GGGAGUUCUACAGUCCGACGAUCGCUUCGAUAUCCGCAUGCUAACCUGGGUUCUGGUCCCAGCCUCGGCAUUCUCCCUGAGCUCCUAAGCAAUUCCCAGGCUUCUCUAGGGCUUCAGUUCUCACAACUGGAAAAUAAAGAGUAGCUGACAUCACCGACAGAGUCUUUUCAUACCAGAAGGAAUUUCUUCACAGGAGUUUCUGCAAAAGACUAUGACAUCUGUGUGUCUGUGGUCUCACGAGGUACCUGGAGGUGUAUGUGCACGGACAUGGGAAGUACGUGAAGAUUUAUUUCGGGAAAAGUGCUCUUGCGGUCGCACUAGUGUGGAAUUCUCGGGUGUCAAGG please.
**Result** 1.67 R (bound/input frequency ratio)
